B1: mRNA-splicing (parent)
chain: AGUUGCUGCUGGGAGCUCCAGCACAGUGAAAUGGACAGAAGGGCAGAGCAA

Variants of: B1
Assay: exon inclusion enrichment index; higher = more inclusion; WT1 exon 5 minigene, HEK293
readout.type: exon inclusion enrichment index

### Prompt Kindly indicate its recorded exon inclusion enrichment index. Item: AGUUCGCGCCGGGAGCUCCAGCACAGUGAAAUGGACAGAAGGGCAGUGCAA
### Response 3.3

### Prompt Kindly indicate its recorded exon inclusion enrichment index. Item: AGUUGAAGAAGGGAGCUCCAGCACAGUGAAACAGACAGAAGGGCAGAGCAA
### Response 0.27

### Prompt Kindly indicate its recorded exon inclusion enrichment index. Item: AGUUAUAUAUGGGAGCUCCAGCACAGUGAAACCGACAGAAGGGCAGAGCAA
### Response 0.144

### Prompt Kindly indicate its recorded exon inclusion enrichment index. Item: AGUUACCACCGGGAGCAGCAGCACAGUGAAAUGGACAGAAGGGCAGAGCAA
### Response 2

### Prompt Kindly indicate its recorded exon inclusion enrichment index. Item: AGUUAGGGAUGGGAGCUCCAGCACAGUGAAAUGUACAGAAGGGCAGAGCAA
### Response 0.000859
